# Test system: UACC-257 melanoma
# Assay method text: NCI-60 one-dose screen, 48 h (100 = growth as untreated, 0 = no growth, -100 = all killed)
# Condition info: 10 µM unless noted
Compounds without any hit were thinned out: in the full panel of roughly 83,000, 20% have a hit. Calls of active or inactive are those of the source. The calls were made as follows: active = growth percent below 10; inactive = the rest.
Parameter: growth

Exercise: What does the data say about its growth? Entry: CCCCN(CC)CC(CC)Nc1cc(OC)cc2cccnc12 (centres undefined)
Solution: 92.9% (inactive)

Exercise: Repeat for the following compound: Oc1c(CNCCNCc2cc(Cl)cc(Cc3ccccc3)c2O)cc(Cl)cc1Cc1ccccc1
Solution: 16% (inactive)

Exercise: Repeat for the following compound: C[C@]12CCc3c(ccc4cc(O)ccc34)[C@@H]1CC[C@H]2O
Solution: 102% (inactive)

Exercise: Repeat for the following compound: C[C@H]1[C@H](C)CC[C@]2(C(=O)N3CCN(C)CC3)CC[C@]3(C)C(=CC[C@@H]4[C@@]5(C)C/C(=C/c6ccco6)C(=O)C(C)(C)[C@@H]5CC[C@]43C)[C@H]12
Solution: 22.5% [100 µM] (inactive)

Exercise: Repeat for the following compound: CC(C)(C)c1cc(C(=O)N2CCC(C(=O)NCCN)CC2)cc(C(C)(C)C)c1
Solution: 81% (inactive)

Exercise: Repeat for the following compound: Fc1ccc(NC(=S)c2ccccc2)cc1
Solution: 98.9% (inactive)

Exercise: Repeat for the following compound: Brc1ccc2c(c1)CN(C1CCCCC1)CO2
Solution: 120% (inactive)

Exercise: Repeat for the following compound: O=[N+]([O-])c1cccc(/C=C/c2ccc3ccccc3n2)c1
Solution: 74.8% (inactive)

Exercise: Repeat for the following compound: C=C1C(=O)O[C@H]2[C@H]1CC/C(COC(=O)NCc1ccc(Cn3c(=O)sn(-c4ccc(Cl)cc4)c3=O)cc1)=C\CC[C@@]1(C)O[C@@H]21
Solution: 72.9% (inactive)
